# System: host expressing Citrobacter freundii ampC gene CMY3b
# protocol_details: MIC conferred by ampC gene CMY3b cloned into common vector
# Assay type: cell-based
compounds and their reported Minimum Inhibitory Concentration (MIC)

{"compound": "CO/N=C(\\C(=O)N[C@@H]1C(=O)N2C(C(=O)O)=C(COC(N)=O)CS[C@H]12)c1ccco1", "Minimum Inhibitory Concentration (MIC)": 1024}
{"compound": "CCN1CCN(C(=O)N[C@@H](C(=O)N[C@@H]2C(=O)N3[C@@H]2SC(C)(C)[C@@H]3C(=O)O)c2ccccc2)C(=O)C1=O", "Minimum Inhibitory Concentration (MIC)": 128}
{"compound": "C[C@H]1[C@H](NC(=O)/C(=N\\OC(C)(C)C(=O)O)c2csc(N)n2)C(=O)N1S(=O)(=O)O", "Minimum Inhibitory Concentration (MIC)": 128}
{"compound": "CC(=O)OCC1=C(C(=O)O)N2C(=O)[C@@H](NC(=O)Cc3cccs3)[C@H]2SC1", "Minimum Inhibitory Concentration (MIC)": 2048}
{"compound": "CC(C)(O/N=C(\\C(=O)N[C@@H]1C(=O)N2C(C(=O)[O-])=C(C[n+]3ccccc3)CS[C@H]12)c1csc(N)n1)C(=O)O", "Minimum Inhibitory Concentration (MIC)": 256}
{"compound": "CO[C@@]1(NC(=O)C(C(=O)O)c2ccsc2)C(=O)N2[C@@H](C(=O)O)C(C)(C)S[C@@H]21 (some centres unmarked)", "Minimum Inhibitory Concentration (MIC)": 32}
{"compound": "CO/N=C(\\C(=O)N[C@@H]1C(=O)N2C(C(=O)O)=C(COC(C)=O)CS[C@H]12)c1csc(N)n1", "Minimum Inhibitory Concentration (MIC)": 64}
{"compound": "CC1(C)S[C@@H]2[C@H](NC(=O)[C@H](N)c3ccccc3)C(=O)N2[C@H]1C(=O)O", "Minimum Inhibitory Concentration (MIC)": 1024}
